- experimentNotes: inhibition of 3D7 malaria parasite growth – strain 3D7 (AID 2306);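 note: 0% = DMSO wells and 100% = chloroquine plus artemisinin control wells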
- conditionSummary: P. falciparum 3D7 erythrocytic growth, LDH absorbance, 72 h; at 2 µM; hits give high values
reportedProperty: growth inhibition (%)
Response body: numeric value in %, unit text excluded.

Guide cases for growth inhibition, answers given:
- compound: "NC1CCCN(Cc2cccc(-c3ccc(-c4nc5ccccc5[nH]4)s3)c2)C1 (centres undefined)"
  growth inhibition / %: 98
- compound: "COCCNCc1cccc(-c2ccc(CNC3CCN(Cc4ccccc4)CC3)cc2)c1"
  growth inhibition / %: 100
- compound: "O=C(/C=C/c1ccc(Cl)c(Cl)c1)N1CCC(CN2CCC(c3c[nH]c4cnccc34)CC2)CC1"
  growth inhibition / %: 102

Consider now this further compound.
Bench note: what growth inhibition did `Cc1cc(N2Cc3ccccc3C2)nc(Nc2ccc(S(=O)(=O)N3CCOCC3)cc2)n1` show?
101

* * *

- experimentNotes: antimalarial activity against Dd2 strain (AID 2302);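 note: 0% = DMSO untreated growth and 100% = chloroquine plus artemisinin killed control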
- conditionSummary: P. falciparum Dd2 in RBCs, LDH growth readout, 72 h; at 2 µM
The source made the active and inactive calls.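 How the source made its calls: active means growth inhibition above 50% at the single 2 µM test dose, taken to imply half-maximal potency below 2 µM; inactive means the rest.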
Pick one and only one: active, inactive

- compound: "O=C(Nc1ccc([N+](=O)[O-])cc1)c1nn(-c2ccccc2)cc1N=Cc1cccc(O)c1"
  cat: "inactive"

Please share the test call associated with `Cc1ccccc1C1CCN(c2ncc(C(=O)NC3CC3)cc2Cl)CC1` .
active

Please share the test call associated with O=C(/C=C/c1ccc(Cl)c(Cl)c1)NCCCCCN1CCCC(CNS(=O)(=O)c2cccc(C(F)(F)F)c2)C1 (stereo not drawn) .
inactive

Please share the test call associated with `CCOC(=O)N1CCN(CCCNc2c3ccccc3nc3ccccc23)CC1` .
inactive

* * *

- systemUnderTest: L-lactate dehydrogenase (Plasmodium falciparum (isolate CDC / Honduras)) (UniProt Q27743)
- Sequence (Q27743 whole entry, looked up): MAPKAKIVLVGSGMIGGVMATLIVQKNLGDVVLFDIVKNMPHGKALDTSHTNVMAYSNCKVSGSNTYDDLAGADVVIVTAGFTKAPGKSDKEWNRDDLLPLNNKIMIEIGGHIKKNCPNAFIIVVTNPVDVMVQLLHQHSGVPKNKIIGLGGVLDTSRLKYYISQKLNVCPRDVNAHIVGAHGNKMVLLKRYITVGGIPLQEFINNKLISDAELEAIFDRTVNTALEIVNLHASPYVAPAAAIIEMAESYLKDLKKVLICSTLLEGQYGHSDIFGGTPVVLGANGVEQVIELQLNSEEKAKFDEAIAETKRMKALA
- experimentNotes: PfLDH activity inhibition – cell lysate, 3D7 strain, counter-screen for P. falciparum growth inhibition project (AID 2304);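 note: 0% = vehicle and 100% = reference inhibitor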
- conditionSummary: P. falciparum 3D7 crude extract, LDH APAD/NBT absorbance; at 2 µM; hits give high values
# maps each entry to its inhibition
Response body: numeric value in %, unit text excluded.

Guide cases for inhibition, answers given:
- compound: "Cc1ccc(NC(=O)Nc2ccc(Cl)c(C(F)(F)F)c2)cc1-c1ccc(C(=O)NCCN2CCOCC2)cc1"
  inhibition, %: 0
- compound: "CN1CCN(CC2(Nc3nccc(NCc4ccc(Cl)cc4Cl)n3)CCCCC2)CC1"
  inhibition, %: 0

Bench note: what inhibition did `O=[N+]([O-])c1cnc(Nc2ccccc2O)nc1Nc1ccccc1O` show?
-3

Bench note: what inhibition did Nc1c(Cl)cc(C(O)CNCCCCCCOCCC=C2CCOCC2)cc1Cl (stereo unspecified) show?
0

* * *

- experimentNotes: human hepatoma cell viability loss – ATP luminescence, cytotoxicity control for P. falciparum antimalarial project, primary screen (AID 2303);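 note: 0% = DMSO wells and 100% = digitonin-killed cells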
- conditionSummary: HepG2 viability, 24-48 h, at 10 µM
Activity calls are given as the source filed them.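 Rule for the calls: active = inhibition above 50%; inactive = the rest.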
Pick one and only one: active, inactive

- compound: "NCCCNc1ccc(-c2ccc(NC(=O)Nc3cc(C(F)(F)F)ccc3F)cc2)cn1"
  cat: "inactive"
- compound: "CCCC(=O)NC(c1ccc(C(C)C)cc1)c1ccc2cccnc2c1O (centres undefined)"
  cat: "active"

Please share the test call associated with `CC(C)Nc1nc(NCCc2cnc[nH]2)nc(NCc2cccc3ccccc23)n1` .
inactive

Please share the test call associated with `COc1ccc2ncc(F)c([C@@H](O)CN3CCC(NCc4cc5c(cn4)OCS5)CC3)c2c1` .
inactive
